Data provenance is PubChem BioAssay (NCI).

Entries and their TGI values follow.
tested on: HCT-15 colon; assay: NCI tumour cell line growth inhibition, 48 h
readout name: TGI

INSERT INTO assay_data (compound, target_or_test_system, readout_name, reported_measurement) VALUES
  ('COc1cccc(NC(=O)CC(=O)N2N=C(N(CCC#N)c3ccccc3C)CC2c2ccccc2)c1 (stereo not given)', 'HCT-15 colon', 'TGI', '> 100 µM'),
  ('CCC1C(c2cccc(OC)c2O)c2cc3c(cc2OC1N1CCCC1)OCO3 (stereo not given)', 'HCT-15 colon', 'TGI', '40.3 µM'),
  ('CCNC(=O)C#CC(=O)NCC', 'HCT-15 colon', 'TGI', '> 61.4 µM'),
  ('Cc1c(C(=O)c2ccccc2C(=O)O)c2ccccc2n1C', 'HCT-15 colon', 'TGI', '> 100 µM'),
  ('CNc1ccc(-c2nc3cc(C)ccc3o2)cc1', 'HCT-15 colon', 'TGI', '> 100 µM'),
  ('NC(=Nc1ccc(O)cc1)S(=O)(=O)O', 'HCT-15 colon', 'TGI', '> 100 µM'),
  ('COC(=O)c1cc(NC(=O)c2cc(NC(=O)c3cc([N+](=O)[O-])cn3C)cn2C)cn1C', 'HCT-15 colon', 'TGI', '> 100 µM'),
  ('CCCCCC(=O)N[C@@H](c1ccccc1)C(O)C(=O)OC1C[C@@]2(O)C(OC(=O)c3ccccc3)C3[C@](C)(C(=O)[C@H](O)C(=C1C)C2(C)C)C(OC1OCC(O)C(O)C1O)C[C@H]1OC[C@@]31OC(C)=O (stereo not given in full)', 'HCT-15 colon', 'TGI', '> 100 µM'),
  ('O=C(Nc1cccc(C(F)(F)F)c1)O/N=C(/Cl)CCl', 'HCT-15 colon', 'TGI', '> 100 µM'),
  ('COc1ccc2[nH]c(Cl)c(/C=C3/C(=O)Nc4cc(C)c(OC)cc43)c2c1', 'HCT-15 colon', 'TGI', '12.9 µM'),
  ('COc1ccc(S(=O)(=O)O)cc1-n1nc(C(=O)Nc2ccccc2)n[n+]1-c1cc(S(=O)(=O)[O-])ccc1OC', 'HCT-15 colon', 'TGI', '> 100 µM'),
  ('CN(C)c1nc(NC23CC4CC(CC(C4)C2)C3)nc(N(C)C)n1', 'HCT-15 colon', 'TGI', '41.2 µM'),
  ('Cc1c(C(=O)N2CCN(c3ccc([N+](=O)[O-])cc3)CC2)[n+](=O)c2cc(Cl)c(Cl)cc2n1[O-]', 'HCT-15 colon', 'TGI', '36.2 µM'),
  ('O=c1/c(=C\c2ccccc2)sc2n1C(c1ccccc1)C1(O)CCCCC1N=2 (stereo not given)', 'HCT-15 colon', 'TGI', '> 100 µM'),
  ('O=C1/C(=C\c2cccc(Oc3ccccc3)c2)S(=O)(=O)C(c2ccccc2)N1c1ccccc1Cl (stereo not given)', 'HCT-15 colon', 'TGI', '> 100 µM'),
  ('O=C(c1ccc2ncc(-c3nc(NC4CC4)ncc3F)n2c1)N1CCOCC1', 'HCT-15 colon', 'TGI', '> 100 µM'),
  ('CC(C)c1ccc(C(=O)Nc2sc3c(c2C#N)CCC(=O)C3)cc1', 'HCT-15 colon', 'TGI', '1.95 µM'),
  ('COc1ccc(C(N)=O)cc1N=NN(C)C', 'HCT-15 colon', 'TGI', '> 100 µM'),
  ('Cc1cc(-c2[nH]c(C(=O)O)cc2I)on1', 'HCT-15 colon', 'TGI', '> 100 µM'),
  ('CCCCCC(=O)c1ccc2[nH]c3c(C)cc([N+](=O)[O-])c(C)c3c2c1', 'HCT-15 colon', 'TGI', '> 100 µM');

---

test system: DU-145 prostate; assay: NCI tumour cell line growth inhibition, 48 h
Entries and their TGI values follow.
readout name: TGI

INSERT INTO results (molecule, reported_measurement) VALUES
  ('COC(=O)c1sc(C(=O)OC)c2c1CSC2', '> 100 µM'),
  ('Cn1c(C(C#N)c2nc(Cl)ncc2Br)nc2ccccc21 (centres undefined)', '> 100 µM'),
  ('Cn1c(=O)c2c(nc3n(Cc4ccccc4)c(=O)c(NCCBr)cn23)n(C)c1=O', '> 100 µM'),
  ('COc1ccc(-c2cc(/C=C3\C(=O)Nc4ccc(Cl)cc43)[nH]n2)cc1', '13.6 µM'),
  ('COc1cccc(-c2ccc3c4c2O[C@H]2c5[nH]c6ccccc6c5C[C@@]5(O)[C@@H](C3)N(CC3CC3)CC[C@]425)c1', '6.91 µM'),
  ('Cc1ccsc1/C=N/Nc1cc(C)c2cccc(C)c2n1', '> 100 µM'),
  ('CC(C)c1ccc(/C(C(=O)O)=C(\O)C(=O)O)cc1', '> 100 µM'),
  ('CC(C)=CC(=O)O[C@H]1C(=O)O[C@@H]2C[C@H]3[C@H](C)C(=O)C(O[C@@H]4O[C@H](CO)[C@@H](O)[C@H](O)[C@H]4O)=C[C@]3(C)[C@H]3[C@@H](O)[C@H](O)[C@]4(C(=O)O)OC[C@]32[C@@H]14', '> 100 µM'),
  ('COC(=O)C1=C(C)NC2(O)C=CC(=O)C3C(=O)N(c4ccccc4)C(=O)C132 (centres undefined)', '> 100 µM');

---

tested on: MCF7 breast
Classes used: active, inactive

INSERT INTO measurements (compound, qualitative_label) VALUES
  ('CCOC(=O)c1[nH]c(-c2ccc(Cl)cc2)cc1-c1cccnc1', 'inactive'),
  ('NC1CCN(c2nc(Nc3cccc(C(F)(F)F)c3)c3c(=O)[nH]ccc3n2)CC1', 'inactive'),
  ('CC1=C[C@H]2c3c(c(O)c(O)c4oc5ccccc5c(=O)c34)[C@H](c3cc(O)c(O)c4oc5ccccc5c(=O)c34)[C@H]2C(C)(C)C1', 'inactive'),
  ('C#CC1(O)C(COP(=O)(O)OC2CC(n3cc(F)c(=O)[nH]c3=O)OC2CO)OC(n2ccc(N)nc2=O)C1O (stereo not drawn)', 'active'),
  ('NC(=O)c1cc(Br)cc(C2CCCCC2)c1O', 'inactive'),
  ('COc1cc2c3c(n(CCCNCCN)c(=O)c2cc1OC)-c1cc2c(cc1C3=O)OCO2', 'inactive'),
  ('N=C(N=C(N)N)N1CCN(c2ccncc2)CC1', 'inactive'),
  ('N#Cc1c(-c2ccccc2)cc(-c2ccc(Nc3nc(Nc4ccc(Cl)cc4)nc(Nc4ccc(Cl)cc4)n3)cc2)nc1N', 'inactive'),
  ('O=C(Nc1ccc(F)cc1)c1c(NC(=O)C(F)(F)F)sc2c1CCCCC2', 'inactive'),
  ('O=S(=O)(NCC1CCC(CNc2ccc(Cl)cc2)CC1)c1ccc(-c2ccccc2)cc1 (stereo not drawn)', 'inactive'),
  ('CCCCCCCCCCN(CCCCCCCCCC)CC(=O)c1ccc2cc(Br)c3ccccc3c2c1', 'inactive'),
  ('CC[C@@]1(O)C(=O)NCc2c1cc1n(c2=O)Cc2cc3c(N)cccc3nc2-1', 'inactive'),
  ('Cn1ncc2c(N)nc(N3CCCCC3)nc21', 'inactive');

---

tested on: MALME-3M melanoma
Entries and their GI50 values follow.
readout name: GI50

INSERT INTO results (chem_smiles, reported_measurement) VALUES
  ('Clc1ccc2[nH]cc(-c3nc(-c4c[nH]c5ncccc45)cs3)c2c1', '5.17 µM'),
  ('C=C1C(=O)O[C@H]2[C@H]1CC/C(COC(=O)NCc1ccc(Cn3c(=O)sn(CCCCl)c3=O)cc1)=C\CC[C@@]1(C)O[C@@H]21', '1.34 µM'),
  ('N#Cc1c(-c2ccccc2)cc(-c2ccc(Nc3nc(Nc4ccc(Cl)cc4)nc(Nc4ccc(Cl)cc4)n3)cc2)nc1N', '1.69 µM'),
  ('CC(C)c1ccc(C(=O)Nc2sc3c(c2C#N)CCC(=O)C3)cc1', '1.17 µM'),
  ('NC(=O)c1cc(Br)cc(C2CCCCC2)c1O', '19.6 µM');

---

system: TK-10 renal
readout name: GI50

INSERT INTO assay_data (chem_smiles, reported_measurement) VALUES
  ('CC1(C)OC(=O)C=C([O-])O1.CC1(C)OC(=O)C=C([O-])O1.O=S(=O)([O-])c1ccc([O-])c2ncccc12.O=S(=O)([O-])c1ccc([O-])c2ncccc12.[Ti+4]', '> 100 µM'),
  ('COc1ccc(-c2cc(/C=C3\C(=O)Nc4ccc(Cl)cc43)[nH]n2)cc1', '8.8 µM'),
  ('CC1=C[C@H]2c3c(c(O)c(O)c4oc5ccccc5c(=O)c34)[C@H](c3cc(O)c(O)c4oc5ccccc5c(=O)c34)[C@H]2C(C)(C)C1', '2.19 µM'),
  ('COc1cc2c3c(c1)c1cc(OC)c(OC)cc1c[n+]3CC2', '> 100 µM'),
  ('COC(=O)c1c2c(c(C)[n+]([O-])c1C)C(=O)C=C(NCc1ccc(F)c(F)c1)C2=O', '2.06 µM'),
  ('CC(=O)O[C@H]1CC[C@@]2(C)C(=CC[C@H]3[C@@H]4C/C(=C\c5cccc(OCCN6CCOCC6)c5)[C@H](OC(C)=O)[C@@]4(C)CC[C@@H]32)C1', '11.6 µM'),
  ('COc1cc2c3c(n(CCCNCCN)c(=O)c2cc1OC)-c1cc2c(cc1C3=O)OCO2', '2.9 µM'),
  ('Cn1ncc2c(N)nc(N3CCCCC3)nc21', '22.9 µM');
